target: human M2 receptor (Homo sapiens); format: cell-based; settings: shift in the acetylcholine dose-response curve (Allosteric EC50 shift, GraphPad PRISM); α >1 = positive cooperativity
Sequence (P08172 whole entry): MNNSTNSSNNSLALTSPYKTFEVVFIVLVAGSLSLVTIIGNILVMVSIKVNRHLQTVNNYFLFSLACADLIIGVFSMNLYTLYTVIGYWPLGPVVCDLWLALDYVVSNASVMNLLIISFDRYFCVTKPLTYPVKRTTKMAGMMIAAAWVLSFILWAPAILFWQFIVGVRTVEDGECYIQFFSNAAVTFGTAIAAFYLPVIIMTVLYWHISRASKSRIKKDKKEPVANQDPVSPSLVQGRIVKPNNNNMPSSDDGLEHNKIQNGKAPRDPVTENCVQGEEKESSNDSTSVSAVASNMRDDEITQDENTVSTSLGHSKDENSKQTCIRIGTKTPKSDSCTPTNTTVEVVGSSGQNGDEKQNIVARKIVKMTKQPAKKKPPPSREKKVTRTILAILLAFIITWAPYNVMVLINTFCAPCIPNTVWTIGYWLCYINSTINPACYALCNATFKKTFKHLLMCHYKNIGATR
# cutoff 10 applies to Cooperativity (alpha factor); >= gives rule met, < gives rule not met

COMPOUND	CLASS_LABEL
CC[C@@H](NC(=O)c1cn(-c2c(F)cccc2F)c2nc(N3C[C@@H](O)CC3=O)ccc2c1=O)C(F)(F)F	rule met
CC[C@@H](NC(=O)c1cn(-c2c(F)cccc2F)c2nc(N3CC4CC4(O)C3)ccc2c1=O)C(F)(F)F (single isomer, unassigned) [Example 305]	rule met
C[C@H](NC(=O)c1cn(-c2c(F)cccc2F)c2nc(N3C[C@@H](O)CC3=O)ccc2c1=O)C(F)(F)F	rule met
CO[C@@H]1CCN(c2ccc3c(=O)c(C(=O)NC45CCC(C)(CC4)CC5)cn(-c4ccc(F)cc4F)c3n2)C1	rule met
CC(COC(F)(F)F)NC(=O)c1cn(-c2ccc(F)cc2F)c2nc(N3CCCC3)ccc2c1=O (racemic)	rule not met
CC12CCC(NC(=O)c3cn(-c4ccc(F)cc4F)c4nc(NCC(F)(F)F)ccc4c3=O)(CC1)CC2	rule met
O=C(N[C@H](c1ccccc1Cl)C(F)(F)F)c1cn(-c2ccc(F)cc2F)c2nc(N3CCCC(O)C3=O)ccc2c1=O (single isomer, unassigned) [Example 208]	rule met
O=C(NC12CC3CC(CC(C3)C1)C2)c1cn(-c2ccc(F)cc2F)c2nc(N3CCC4(C3)CC4(F)F)ccc2c1=O (centres unmarked)	rule not met
CN(C)c1ccc2c(=O)c(C(=O)NCc3c(Cl)cccc3C(F)(F)F)cn(-c3ccc(F)cc3F)c2n1	rule not met
O=C(NC1(C(F)(F)F)CCCC1)c1cn(-c2c(F)cc(F)cc2F)c2nc(N3C[C@@H](O)[C@H](O)C3)ccc2c1=O	rule met
CC[C@H](NC(=O)c1cn(-c2c(F)cc(F)cc2F)c2nc(N3C[C@@](C)(O)C[C@H]3C)ccc2c1=O)C(F)(F)F	rule not met
CN(C)c1ccc2c(=O)c(C(=O)NC34CC5CC(F)(CC(F)(C5)C3)C4)cn(-c3ccc(F)cc3F)c2n1	rule met
CC(COC(F)(F)F)NC(=O)c1cn(-c2ccc(F)cc2F)c2nc(N3CC[C@H](F)C3)ccc2c1=O (mixture of isomers) [Example 227]	rule met
CC[C@@H](NC(=O)c1cn(-c2c(F)cccc2Cl)c2nc(N3C[C@@H](O)CC3=O)ccc2c1=O)C(F)(F)F	rule met
CC[C@@H](NC(=O)c1cn(-c2ccc(F)cc2F)c2nc(N3CC4CC4(O)C3)ccc2c1=O)C(F)(F)F (single isomer, unassigned) [Example 315]	rule met
CC[C@H](NC(=O)c1cn(-c2c(F)cc(F)cc2F)c2nc(N3CCCN(CCO)C3=O)ccc2c1=O)C(F)(F)F	rule met
O=C(NC12CC3CC(CC(C3)C1)C2)c1cn(-c2ccc(F)cc2F)c2nc(N3CCC3=O)ccc2c1=O	rule met
O=C(N[C@H](C1CC1)C(F)(F)F)c1cn(-c2c(F)cccc2F)c2nc(N3C[C@@H](O)CC3=O)ccc2c1=O (single isomer, unassigned)	rule met
CC1(F)CCN(c2ccc3c(=O)c(C(=O)NC45CC6CC(CC(C6)C4)C5)cn(-c4ccc(F)cc4F)c3n2)C1 (racemic)	rule met
CC[C@@H](NC(=O)c1cn(-c2c(F)cccc2Cl)c2nc(N3CC4CC4(O)C3)ccc2c1=O)C(F)(F)F (mixture of isomers)	rule met
CCC(NC(=O)c1cn(-c2ccccc2F)c2nc(N(C)C)ccc2c1=O)C(F)(F)F (racemic)	rule not met
CC[C@@H](NC(=O)c1cn(-c2ccc(F)cc2F)c2nc(N3CCC(O)C3=O)ccc2c1=O)C(F)(F)F (single isomer, unassigned) [Example 225]	rule met
CCC(NC(=O)c1cn(-c2ccc(F)cc2F)c2nc(N3CC[C@H](F)C3)ccc2c1=O)C(F)(F)F (some centres unmarked)	rule met
O=C(NC(c1cccc(F)c1)C(F)(F)F)c1cn(-c2ccc(F)cc2F)c2nc(N3C[C@@H](O)CC3=O)ccc2c1=O (mixture of isomers)	rule met
CC[C@H](NC(=O)c1cn(-c2ccc(F)cc2F)c2nc(N3C[C@H](C(=O)OC)OC3=O)ccc2c1=O)C(F)(F)F	rule met
